biological target: Activated CDC42 kinase 1 (Homo sapiens); assay: Inhibition of ACK1 (unknown origin) by radiometric biochemical kinase assay
Sequence (Q07912 whole entry): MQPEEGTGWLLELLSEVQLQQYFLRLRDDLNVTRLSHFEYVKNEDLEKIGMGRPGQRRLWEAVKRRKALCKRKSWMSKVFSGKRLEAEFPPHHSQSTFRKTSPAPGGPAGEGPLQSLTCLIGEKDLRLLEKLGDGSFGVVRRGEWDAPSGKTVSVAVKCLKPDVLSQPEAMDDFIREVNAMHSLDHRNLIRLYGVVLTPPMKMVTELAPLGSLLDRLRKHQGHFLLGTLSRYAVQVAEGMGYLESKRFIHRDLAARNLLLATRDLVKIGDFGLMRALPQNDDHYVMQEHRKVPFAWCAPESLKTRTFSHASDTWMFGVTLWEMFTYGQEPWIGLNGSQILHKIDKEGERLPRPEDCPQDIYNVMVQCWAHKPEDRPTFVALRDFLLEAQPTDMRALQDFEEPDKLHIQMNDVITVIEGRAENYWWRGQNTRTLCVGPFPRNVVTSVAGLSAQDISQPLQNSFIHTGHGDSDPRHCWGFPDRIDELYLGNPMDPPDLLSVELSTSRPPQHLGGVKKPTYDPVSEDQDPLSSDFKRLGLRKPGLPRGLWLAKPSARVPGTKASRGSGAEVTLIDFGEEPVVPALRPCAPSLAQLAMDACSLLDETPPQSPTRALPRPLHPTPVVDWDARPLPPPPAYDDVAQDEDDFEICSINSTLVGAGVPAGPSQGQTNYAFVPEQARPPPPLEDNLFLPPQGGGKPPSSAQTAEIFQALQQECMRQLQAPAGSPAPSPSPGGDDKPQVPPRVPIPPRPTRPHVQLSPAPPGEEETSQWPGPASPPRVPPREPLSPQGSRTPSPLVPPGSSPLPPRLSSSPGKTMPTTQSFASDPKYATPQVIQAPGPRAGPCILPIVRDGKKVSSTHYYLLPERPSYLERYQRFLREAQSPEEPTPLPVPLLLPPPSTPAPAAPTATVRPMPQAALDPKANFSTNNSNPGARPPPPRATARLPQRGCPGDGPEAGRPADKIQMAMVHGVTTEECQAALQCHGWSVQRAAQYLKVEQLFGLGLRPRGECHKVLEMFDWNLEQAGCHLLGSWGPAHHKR
One threshold, 20 nM, splits the recorded IC50 values: lower ones are true, equal or higher ones are false.

Observe how each entry below is paired with its result.
| compound | assigned label |
| --- | --- |
| Cc1ccc(Nc2ncc3c(n2)N(C)C(=O)N(c2cc(NC(=O)c4ccc(CN5CCC(N(C)C)C5)c(C(F)(F)F)c4)ccc2C)C3)cn1 (configuration not stated) | true |
| Cc1ccc(Nc2ncc3c(n2)N(C)C(=O)N(c2cc(NC(=O)c4cccc(C(F)(F)F)c4)ccc2C)C3)cn1 | false |
| Cc1ccc(Nc2ncc3c(n2)N(C)C(=O)N(c2cc(NC(=O)c4ccc(N5CCN(C)CC5)c(C(F)(F)F)c4)ccc2C)C3)cn1 | false |
| Cc1ccc(Nc2ncc3c(n2)N(C)C(=O)N(c2cc(NC(=O)c4ccccc4)ccc2C)C3)cn1 | false |
| Cc1ccc(Nc2ncc3c(n2)N(C)C(=O)N(c2cc(NC(=O)c4cc(N5CCOCC5)cc(C(F)(F)F)c4)ccc2C)C3)cn1 | false |
| CC(=O)N1CCN(c2ccc(Nc3ncc4c(n3)N(C)C(=O)N(c3cc(NC(=O)c5cccc(C(F)(F)F)c5)ccc3C)C4)cn2)CC1 | true |

Next compound, please.
Request: In plain terms, does CCN1CCN(C(=O)c2ccc(Nc3ncc4c(n3)N(C)C(=O)N(c3cc(NC(=O)c5ccc(CN6CCC(N(C)C)C6)c(C(F)(F)F)c5)ccc3C)C4)cn2)CC1 (configuration not stated) come in under 20 nM for IC50?
Response: false

====

assay: Growth inhibition of parental mouse BA/F3 cells after 72 hrs by celltiter-glo assay; assay type: cell-based, BaF3
What log10 of GI50 at 72 h was measured for each of the following?
A value of 2 here means GI50 at 72 h of 100 in nM, since values are log10.

// below: answered compounds
| compound | log10 of GI50 at 72 h |
| --- | --- |
| Cc1ccc(Nc2ncc3c(n2)N(C)C(=O)N(c2cc(NC(=O)c4ccc(N5CCN(C)CC5)c(C(F)(F)F)c4)ccc2C)C3)cn1 | 2.84 |
| Cc1ccc(NC(=O)c2cccc(C(F)(F)F)c2)cc1N1Cc2cnc(NC3CCCCC3)nc2N(C)C1=O | 3.72 |
| Cc1ccc(Nc2ncc3c(n2)N(C)C(=O)N(c2cc(NC(=O)c4ccc(-n5cccc5)c(C(F)(F)F)c4)ccc2C)C3)cn1 | 2.50 |

For every item below, please supply its log10 of GI50 at 72 h.
1. Cc1ccc(NC(=O)c2cccc(C(F)(F)F)c2)cc1N1Cc2cnc(NCCO)nc2N(C)C1=O
2. Cc1ccc(Nc2ncc3c(n2)N(C)C(=O)N(c2cc(NC(=O)c4ccc(C)c(C(F)(F)F)c4)ccc2C)C3)cn1
3. CCN1CCN(C(=O)c2ccc(Nc3ncc4c(n3)N(C)C(=O)N(c3cc(NC(=O)c5cccc(C(F)(F)F)c5)ccc3C)C4)cn2)CC1
4. Cc1ccc(NC(=O)c2cccc(C(F)(F)F)c2)cc1N1Cc2cnc(N)nc2N(C)C1=O
5. Cc1ccc(Nc2ncc3c(n2)N(C)C(=O)N(c2cc(NC(=O)c4cc(N5CCC(O)CC5)cc(C(F)(F)F)c4)ccc2C)C3)cn1

Response:
[3.52, 2.94, 2.86, 3.32, 2.83]

For every item below, please supply its log10 of GI50 at 72 h.
1. Cc1ccc(Nc2ncc3c(n2)N(C)C(=O)N(c2cc(NC(=O)c4ccc(CN5CCC(N(C)C)C5)c(C(F)(F)F)c4)ccc2C)C3)cn1 (stereo not given)
2. Cc1ccc(Nc2ncc3c(n2)N(C)C(=O)N(c2cc(NC(=O)c4ccc(CN5CCN(C)CC5)c(C(F)(F)F)c4)ccc2C)C3)cn1
3. Cc1ccc(NC(=O)c2cccc(C(F)(F)F)c2)cc1N1Cc2cnc(NC3CC3)nc2N(C)C1=O
4. CCN1CCN(c2ccc(Nc3ncc4c(n3)N(C)C(=O)N(c3cc(NC(=O)c5cccc(C(F)(F)F)c5)ccc3C)C4)cn2)CC1
5. Cc1ccc(NC(=O)c2cccc(C(F)(F)F)c2)cc1N1Cc2cnc(Nc3cnn(C)c3)nc2N(C)C1=O
6. Cc1ccc(NC(=O)c2cccc(C(F)(F)F)c2)cc1N1Cc2cnc(Nc3ccccc3)nc2N(C)C1=O
7. Cc1cc(Nc2ncc3c(n2)N(C)C(=O)N(c2cc(NC(=O)c4ccc(CN5CCC(N(C)C)C5)c(C(F)(F)F)c4)ccc2C)C3)n(C)n1 (stereo not given)

Response:
1: 2.80; 2: 2.91; 3: 3.70; 4: 2.42; 5: 2.55; 6: 3.25; 7: 2.71
